Tested on: HCC 2998
Measurement Description: NCI tumour cell line growth inhibition, 48 h
The source made the active and inactive calls. No stated cut-off is given here; in the data, active = GI50 up to about 1.1 µM and inactive = higher.
Classes used: active, inactive

>  <Compound>
CC1C2CC=CC(=O)[C@@]2(C)CCC12OCCO2 (some centres not stated)

>  <Group Label>
inactive

$$$$
>  <Compound>
COc1cc(/C=C/C(=O)Oc2ccccc2)ccc1C(=O)O/C=C/c1ccccc1

>  <Group Label>
inactive

$$$$
>  <Compound>
CC(NC(=O)OC(C)(C)C)C(=O)NC1CCCC1 (configuration not stated)

>  <Group Label>
inactive

$$$$
>  <Compound>
OCC1C(O)C(O)[C@@H]2SCCN12 (some centres not stated)

>  <Group Label>
inactive

$$$$
>  <Compound>
Cc1nc(Cl)c(C)c(Cl)n1

>  <Group Label>
inactive

$$$$
>  <Compound>
COc1cccc(CN(C(=O)/C=C\Sc2ccccc2)C(C)(C)C)c1

>  <Group Label>
inactive

$$$$
>  <Compound>
O=[N+]([O-])c1ccccc1[S+]([O-])c1ccccc1 (configuration not stated)

>  <Group Label>
inactive

$$$$
>  <Compound>
O=c1c2cc(Br)ccc2ncn1COCc1ccccc1

>  <Group Label>
inactive

$$$$
>  <Compound>
CCOP1(=O)C=C(C)C(Cl)=C(C)C1 (configuration not stated)

>  <Group Label>
inactive

$$$$
>  <Compound>
COc1ccc(NC(C)=O)cc1N1C(=O)/C(=C\c2cc(OC)c(OC)c(OC)c2)SC1c1ccccc1 (configuration not stated)

>  <Group Label>
inactive

$$$$
>  <Compound>
COC(=O)c1ccccc1C1CN=NC12Cc1ccccc1C2=O (configuration not stated)

>  <Group Label>
inactive

$$$$
>  <Compound>
Nc1nncs1

>  <Group Label>
inactive

$$$$
>  <Compound>
CN(C)c1ccc(Cc2cc(C(C)(C)C)cc(C(C)(C)C)c2O)cc1

>  <Group Label>
inactive

$$$$
>  <Compound>
O=C1c2cccc3cc([N+](=O)[O-])cc(c23)C(=O)N1NC1=NCCN1

>  <Group Label>
inactive

$$$$
>  <Compound>
COC1CC(C)C(OC)C2=CC(=O)C=C(NC(=O)/C(C)=C/C=C\C(C)C(OC(N)=O)/C(C)=C\C(C)C1OC)C2=O (configuration not stated)

>  <Group Label>
active

$$$$
>  <Compound>
COc1cc(OC)c(/C=C\c2cc(/C=C/c3c(OC)cc(OC)cc3OC)c3ccccc3[n+]2C)c(OC)c1

>  <Group Label>
inactive

$$$$
>  <Compound>
CCOC(=O)N1C(=S)C(C(=O)OC)(C(=O)OC)N=C1C

>  <Group Label>
inactive

$$$$
>  <Compound>
N=C(N)SCc1ccc(N=C=S)cc1

>  <Group Label>
inactive

$$$$
>  <Compound>
Cc1nc(O)nc(O)c1/C=C/C(=O)O

>  <Group Label>
inactive

$$$$
>  <Compound>
CCOC(=O)NC(Nc1ncccn1)(C(F)(F)F)C(F)(F)F

>  <Group Label>
inactive

$$$$
>  <Compound>
CN(/N=C/c1cccc2cccnc12)c1c([N+](=O)[O-])cc([N+](=O)[O-])cc1[N+](=O)[O-]

>  <Group Label>
inactive

$$$$
>  <Compound>
O=C(Nc1ccc(Nc2ccc(NC(=O)c3ccccc3)c3c2C(=O)c2ccccc2C3=O)c2c1C(=O)c1ccccc1C2=O)c1ccccc1

>  <Group Label>
inactive

$$$$
>  <Compound>
COc1cc2c(cc1OC)C(C(=O)O)C(c1ccccc1)N(C)C2=O (configuration not stated)

>  <Group Label>
inactive

$$$$
>  <Compound>
CN(C)Cc1cc(/N=N/c2cccc(Cl)c2)ccc1O

>  <Group Label>
inactive

$$$$
>  <Compound>
CCOC(=O)C(=O)Nc1ccc(C)c(C)c1

>  <Group Label>
inactive

$$$$
>  <Compound>
N=C1OC(c2cccc(Cl)c2)C(NNS(=O)(=O)c2ccccc2)=C1O (configuration not stated)

>  <Group Label>
inactive

$$$$
>  <Compound>
CC(C)(C)c1cc(-c2c3nc(c(-c4cc(C(C)(C)C)cc(C(C)(C)C)c4)c4ccc([nH]4)c(-c4cc(C(C)(C)C)cc(C(C)(C)C)c4)c4nc(c(-c5cc(C(C)(C)C)cc(C(C)(C)C)c5)c5ccc2[nH]5)C=C4)C=C3)cc(C(C)(C)C)c1

>  <Group Label>
inactive

$$$$
>  <Compound>
N#Cc1c(N2CCCC2)ncn(Cc2ccccc2)c1=S

>  <Group Label>
inactive

$$$$
>  <Compound>
Cc1ccc(S(=O)(=O)n2cc(C=O)c(-c3cn(S(=O)(=O)c4ccc(C)cc4)cc3-c3cn(S(=O)(=O)c4ccc(C)cc4)cc3C=O)c2)cc1

>  <Group Label>
inactive

$$$$
>  <Compound>
Cc1occc1C(=S)Nc1ccc(Cl)c(/C=N/OC(C)(C)C)c1

>  <Group Label>
inactive

$$$$
>  <Compound>
N#Cc1c(C#N)c(SSc2c(C#N)c(C#N)c(N)n2-c2cccc3ccccc23)n(-c2cccc3ccccc23)c1N

>  <Group Label>
inactive

$$$$
>  <Compound>
COc1ccc2c(c1)-c1c(c3ccccc3n1CCN1CCOCC1)CC2

>  <Group Label>
inactive

$$$$
>  <Compound>
Clc1ccccc1C(n1cc(Br)cn1)n1cc(Br)cn1

>  <Group Label>
inactive

$$$$
>  <Compound>
CCOc1ccc(N/C(Cl)=C(Cl)\C(=C(\Nc2ccc(OCC)cc2)n2nnc3ccccc32)[N+](=O)[O-])cc1

>  <Group Label>
inactive

$$$$
>  <Compound>
COc1ccc(CSCc2cc(OC)c(OC)c(OC)c2)cc1

>  <Group Label>
inactive

$$$$
>  <Compound>
COC(=O)[C@]1(c2cc3ccccc3[nH]2)CC2CN(C(=O)OCc3ccccc3)C1CC2=O (some centres not stated)

>  <Group Label>
inactive

$$$$
>  <Compound>
CCc1cccc(C)c1NC(=O)NS(=O)(=O)c1ccc(C)cc1

>  <Group Label>
inactive

$$$$
>  <Compound>
O=C(N/C(=C\NC1=NCCS1)C(=O)N1CSC[C@@H]1C(=O)O)c1ccccc1

>  <Group Label>
inactive

$$$$
>  <Compound>
CC(C)Sc1nncc(/C(N)=N/O)n1

>  <Group Label>
inactive

$$$$
>  <Compound>
COC(=O)C1C(=O)CC2CCCCC21 (configuration not stated)

>  <Group Label>
inactive

$$$$
>  <Compound>
Cc1ccc(/N=N/C(=N\c2ccc(F)cc2)c2ccc(N(CCC#N)CCC#N)cc2)cc1

>  <Group Label>
inactive

$$$$
>  <Compound>
CC(=O)Nc1ccc2c(c1)C(=O)c1ccccc1-2

>  <Group Label>
inactive

$$$$
